// pIC50 lookup, one value per entry
Assayed system: rat NaP2b (SLC34A2) (Rattus norvegicus)
Construct: host or cells: HEK293
Sequence (Q9JJ09 1-695): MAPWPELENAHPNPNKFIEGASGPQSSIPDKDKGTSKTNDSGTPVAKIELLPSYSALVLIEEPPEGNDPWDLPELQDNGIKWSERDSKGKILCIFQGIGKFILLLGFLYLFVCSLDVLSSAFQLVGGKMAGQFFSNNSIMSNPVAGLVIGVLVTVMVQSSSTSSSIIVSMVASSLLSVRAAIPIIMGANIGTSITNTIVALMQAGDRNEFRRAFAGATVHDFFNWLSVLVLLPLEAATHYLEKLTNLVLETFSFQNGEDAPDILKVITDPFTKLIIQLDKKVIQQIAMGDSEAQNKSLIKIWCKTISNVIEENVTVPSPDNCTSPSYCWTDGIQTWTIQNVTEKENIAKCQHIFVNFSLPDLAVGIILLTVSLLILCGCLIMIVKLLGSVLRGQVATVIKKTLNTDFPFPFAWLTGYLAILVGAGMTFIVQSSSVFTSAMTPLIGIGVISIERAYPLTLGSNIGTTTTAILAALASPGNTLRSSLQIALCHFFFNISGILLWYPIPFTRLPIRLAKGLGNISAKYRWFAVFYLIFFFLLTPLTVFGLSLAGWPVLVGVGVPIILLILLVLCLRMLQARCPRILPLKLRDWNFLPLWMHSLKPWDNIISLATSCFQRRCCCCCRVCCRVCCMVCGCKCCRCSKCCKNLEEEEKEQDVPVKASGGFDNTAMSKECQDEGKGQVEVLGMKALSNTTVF
Experimental details: Inhibition of NaP2b-mediated Pi (33P) uptake in transfected HEK293 cells, rat NaP2b
Assay type: cell-based
Protocol conditions: 33P Pi uptake, 0.1 mM phosphate, value given as pIC50 range
pIC50: −log10 of the molar value.

Compound	Assayed system	pIC50
CN1CCC(N(C)C(=O)c2cccc(SCc3cccc(C(=O)Nc4ccc(N5CCCCC5)cc4-c4cc(C(=O)NCc5cccc(C(F)(F)F)c5)ccn4)c3)c2)CC1	rat NaP2b (SLC34A2) (Rattus norvegicus)	4.50 to 5.00
CC(C)OCCOc1ccc(NC(=O)c2cccc(C(=O)N(C)CCN3CCOCC3)c2)c(-c2cc(C(=O)NCc3cccc(C(F)(F)F)c3)ccn2)c1	rat NaP2b (SLC34A2) (Rattus norvegicus)	5.10 to 6.00
CN(CCN1CCN(C(=O)N(C)CCOCCOCCOCCC(=O)OC(C)(C)C)CC1)C(=O)c1cccc(C(=O)Nc2ccc(N3CCCCC3)cc2-c2cc(C(=O)N[C@H]3CCCc4ccccc43)ccn2)c1	rat NaP2b (SLC34A2) (Rattus norvegicus)	> 6.00

# compound CCN(CC)c1ccc(NC(=O)c2cccc(C(=O)N(C)CCN3CCN(C(=O)N(C)CCOCCOCCOCCC(=O)N4CCN(CCOCCO)CC4)CC3)c2)c(-c2cc(C(=O)N[C@H]3CCCc4ccccc43)ccn2)c1 ; its pIC50 = 4.50 to 5.00
